assay: reducers of endogenous Her2 protein level, primary screen, SKBR3 breast tumor cells, AlphaScreen, ATP viability (AID 461); settings: 18-24 h, measured here: SKBR3 viability, ATP luminescence, at 10 µM;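 on viability: percent of carrier control wells set as 100% viability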
measured endpoint: viability (%)
Number in %, nothing else.

For the molecule O=C(NCc1cccnc1)c1ccccn1 , what viability is on record?
102

###

Reported values of inhibition for individual entries
assay: 384-well plate pilot, post-Golgi transport modulator project, inhibition of yeast transport mutant growth (AID 636); settings: absorbance 615 nm, about 18 h, stronger effect = higher value
Field format: number, assumed %, no unit text.

Example cases with answers are listed next.
| compound | measured endpoint | unit text | obs value |
| --- | --- | --- | --- |
| COc1ccc(C)cc1NS(=O)(=O)c1ccc(NS(=O)(=O)c2ccc(NC(C)=O)cc2)cc1 | inhibition | % | -6.67 |
| COCCNC(=O)c1c(N)n(CCC2=CCCCC2)c2nc3ccccc3nc12 | inhibition | % | -6.03 |
| O=S(=O)(c1ccc(Br)s1)N1CCCCC1 | inhibition | % | -1.32 |
| Cc1ccc(NC(=O)CN2CC(C)SC2=NC2CCCCC2)cc1 (stereo not drawn) | inhibition | % | -6.8 |
| O=C(NCCO)c1cccc2c1C(=O)c1ccccc1-2 | inhibition | % | -6.4 |
| CCN1C(=O)N(CC)C2C1N(C(C)=O)C(=O)N2C(C)=O (stereo not drawn) | inhibition | % | -5.66 |

For the compound COc1cccc(-n2nc(C(=O)Nc3ccc4c(c3)OCO4)c3ccccc3c2=O)c1 , what inhibition is on record?
-2.16

Quick check: inhibition of Cc1nc2ccccc2c(=O)n1/N=C/c1ccncc1 ?
-6.13

Which inhibition value belongs to Cc1c(C(=O)N2CCOCC2)oc2ccc(S(=O)(=O)N3CCCC3)cc12 ?
-6.35

Please report the recorded inhibition for O=C1CCCC2=C1C(c1ccsc1)CC(=O)N2c1ccccc1 (stereo not drawn) .
-3.29

For the compound shown here, CCc1cc(C)cc(OCCNC(=O)c2ncn[nH]2)c1 , give the reported inhibition.
-3.95

Report inhibition for Cc1cc(NC(=O)COc2cccc(Oc3ccccc3)c2)no1 please.
-0.38

Request the reported inhibition associated with OCCn1c(-c2ccc3c(c2)OCO3)csc1=Nc1ccccc1
-4.4

May I ask what inhibition has been recorded for CN(C)S(=O)(=O)c1ccc(S(=O)(=O)Nc2ccc3c(c2)oc2ccccc23)cc1 ?
2.11

Which value of inhibition has been reported for O=S(=O)(NCc1ccccc1)c1ccc2c(c1)OCCO2 in the records?
-3.9

May I ask what inhibition has been recorded for Cc1onc(-c2c(Cl)cccc2Cl)c1C(=O)N1CCc2ccccc21 ?
-0.93

What value of inhibition has been reported for the following compound? C=CCn1c(SCC(=O)c2cc(C)n(C(C)COC)c2C)nc2sc(C)c(C)c2c1=O (stereo not drawn)
-8.77

What does the record list as inhibition for Nc1ccc(-n2c(N)c(C(=O)NCc3ccc4c(c3)OCO4)c3nc4ccccc4nc32)cc1 ?
-1.73

Please report the recorded inhibition for Cc1cccc(-c2nnc(SCC#N)n2-c2cccc(Cl)c2)c1 .
-6

###

Each item that follows carries a reported viability.
assay: reversal of MRP1-mediated doxorubicin resistance, pilot screen, H69AR cells, doxorubicin co-treatment (AID 601); settings: H69AR cells + 2 uM doxorubicin, CellTiter-Glo, 72 h; measured here: viability with 2 uM doxorubicin; at 10 µM; stronger effect = lower value
Provide only the numeric value, understood in %.

Here's what some known entries look like.
| compound | viability [%] |
| --- | --- |
| CCCN(CCC)C(=O)CSc1nc2ccccc2c(=O)n1C1CCCC1 | 56.3 |
| Cn1c(CN2CCOCC2)nc2cc(NC(=O)c3ccccc3Cl)ccc21 | 99.5 |

Please report the recorded viability for COc1ccc(-c2nnc(SCCC(=O)O)n2-c2ccccc2)cc1 .
97.3

Give its viability value. Item: Cc1nc2ncnn2c(N2CCC(C(=O)NC3CCCC3)CC2)c1Cc1ccccc1
35.8

# viability lookup, item CC(C)(C)NC(=O)Cn1nnc(-c2cccs2)n1
79.1

// query viability value for entry Cc1cc(C(=O)COC(=O)C2COc3ccccc3O2)c(C)n1CC1CCCO1 (stereo unspecified)
93.6

Consider the compound shown here: COc1ccccc1-c1nnc2sc(-c3ccc(N(C)C)cc3)nn12 What is its recorded viability?
39.1

Suppose we examine the compound CC(C)(C)OC(=O)N1CCC(C(=O)N[C@H](Cc2ccccc2)C(=O)O)CC1 ; what viability value has been reported?
95.1

Look at this compound and give its reported viability. Cn1c(=O)oc2cc(S(=O)(=O)NCCC(=O)N3CCc4ccccc4C3)ccc21
91.6

For Cn1c(=O)c2c(nc(SCC(=O)O)n2Cc2cccc(C(F)(F)F)c2)n(C)c1=O , what is its reported viability?
90.2

# input compound: Cc1nnc(SCC(=O)N2c3ccccc3CC2C)s1 (stereo unspecified) ; wanted: its viability
92.7

###

assay: HUVEC growth inhibition – cell-based, human, primary screen (AID 575); details: HUVEC proliferation, CellTiter-Glo luminescence, 72 h; at 10 µM; stronger effect = lower value;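 further: 100% = median of untreated cell wells with 0.1% DMSO on each plate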
measured endpoint: viability (%)
Respond numerically; units are % and should not be typed.

| compound | viability, % |
| --- | --- |
| O=C(CN(C(=O)CCNC(=O)c1ccco1)c1ccccc1)NC1CCCC1 | 103 |

Field request: viability | item: CCOC(=O)c1ccc(NC(=O)CCc2c(C)nc3ncnn3c2C)cc1
107

Tell me the measured viability of CCN(CC)S(=O)(=O)N1CCC(C(=O)NCC2COc3ccccc3O2)CC1 (centres undefined) , please.
109

Query (compound): Cc1cc(C(F)F)n2nc(C(=O)Nc3ccc(S(=O)(=O)N4CCCCCC4)cc3)nc2n1 ; field requested: viability
83.4

###

biological target: Receptor tyrosine-protein kinase erbB-2 (Homo sapiens); assay: reducers of endogenous Her2 protein level, primary screen, SKBR3 breast tumor cells, AlphaScreen, ATP viability (AID 461); details: 18-24 h, at 10 µM, stronger effect = lower value;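 on Her2 level: lower value means less Her2 protein in the cells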;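 on viability: percent of carrier control wells set as 100% viability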
We begin with a simple list: items and their reported Her2 level.
Provide only the numeric value, understood in %.

Solved entries:
| compound | target system | Her2 level, % |
| --- | --- | --- |
| CCOc1ccc(CNC(=O)C2CCCN(S(C)(=O)=O)C2)cc1OC (configuration not stated) | Receptor tyrosine-protein kinase erbB-2 (Homo sapiens) | 133 |
| C=CCOC(=O)C(C#N)c1nc2ccccc2nc1N1CCN(Cc2ccccc2)CC1 (configuration not stated) | Receptor tyrosine-protein kinase erbB-2 (Homo sapiens) | 79 |
| Nn1c(SCC(=O)Nc2ccc(Oc3ccccc3)cc2)nnc1C1CC1 | Receptor tyrosine-protein kinase erbB-2 (Homo sapiens) | 100 |
| CCOc1ccc(N(CC)C(=O)COc2cc(=O)n(C)c3ccccc23)cc1 | Receptor tyrosine-protein kinase erbB-2 (Homo sapiens) | 86 |
| O=C(O)CCCNS(=O)(=O)c1ccc(NCc2ccccc2)c(C(=O)O)c1 | Receptor tyrosine-protein kinase erbB-2 (Homo sapiens) | 94 |
| CCN(CC(=O)Nc1ccc(S(N)(=O)=O)cc1)S(=O)(=O)c1cc(C)ccc1OC | Receptor tyrosine-protein kinase erbB-2 (Homo sapiens) | 105 |
| Cc1cc(N2CCC3(CC2)OCCO3)n2nc(C)c(-c3ccc(Cl)cc3)c2n1 | Receptor tyrosine-protein kinase erbB-2 (Homo sapiens) | 84 |
| Cc1nnc(SCCn2c(N3CC(C)CC(C)C3)nc3c2c(=O)n(C)c(=O)n3C)s1 (configuration not stated) | Receptor tyrosine-protein kinase erbB-2 (Homo sapiens) | 99.5 |
| O=C(c1cc2cc(Cl)cc(Cl)c2oc1=O)N1CCOCC1 | Receptor tyrosine-protein kinase erbB-2 (Homo sapiens) | 82.5 |
| Cc1ccc2nc(NCCCN3CCOCC3)c(C=NCCCN3CCOCC3)c(=O)n2c1 | Receptor tyrosine-protein kinase erbB-2 (Homo sapiens) | 84 |

Which measured Her2 level value corresponds to COc1ccc(-n2c(SCC#N)nc3ccccc3c2=O)cc1 ?
106

// query Her2 level value for entry O=C(C1CCCCC1)N1CCC(c2nc3c(nnn3Cc3c(F)cccc3Cl)c(=O)[nH]2)CC1
96.5

Query: Her2 level; subject: Cc1ccc(OCCC(=O)OCC(=O)C(C)(C)C)cc1
92.5

Sample Cc1ccc(Cn2nnc3c(=O)n(CC(=O)NCC4CCCO4)cnc32)cc1 (configuration not stated) — what was its Her2 level?
88.5

Her2 level for COc1cc(C)nc(NS(=O)(=O)c2ccc(C)cc2)n1 ?
88

Look up Her2 level for this compound: CCn1c(=O)cc(SCC(=O)N2CCN(C3CCCCC3)CC2)c2ccccc21
77

Need Her2 level of CCCn1c(N)c(C(=O)CSc2nnc(Cc3ccccc3)o2)c(=O)n(C)c1=O , thanks.
90.5

What measured Her2 level goes with COC(=O)c1cccc(NC(=O)Cc2coc3cc(OC)ccc23)c1 ?
96.5

Item O=S(=O)(NCc1cn2ccsc2n1)c1ccc2c(c1)OCCO2 has what recorded Her2 level?
102

Please give the measured Her2 level for this compound: COCCCNS(=O)(=O)c1ccc2c(c1)CCN2C(C)=O
99

Entry CCOC(=O)CSC1=Nc2ccccc2C2=NC(CC(=O)NCc3ccc(OC)cc3)C(=O)N12 (configuration not stated) has what Her2 level?
89

Given the compound CCOC(=O)c1c(C)n(C)c2ccc(OC)c(NC(=O)CCN3CCSCC3)c12 , what is its reported Her2 level?
91.5
